Target: T1, human GCP-2 (human, UniProt P80162 38-114, limits assumed)
T1 sequence (looked up): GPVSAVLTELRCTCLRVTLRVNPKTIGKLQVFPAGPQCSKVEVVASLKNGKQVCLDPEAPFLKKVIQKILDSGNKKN
Assay: cell-based or functional assay
RECORDED METRIC: FLIPR IC50

INPUT: What FLIPR IC50 value was documented for this binder, 17D1.1D2 (antibody, IgG2c, V domains shown) VH: EVQLQQSGPELVKPGASVKISCKASGYTFTDYYMNWLRQSHGKSLEWIGDINPNNGGTNYNQKFKNKATLTVDKSSSTAYMELRSLTSEDSAVFYCAGLGRIFDYWGQGTTLTVSS VL: ENVLTQSPAIMSAFPGEKVTMTCRASSSVSSTYLHWYQQKSGASPKLWIYSTSDLASGVPARFSGSGSGTSYSLTISSVEAEDAATYYCQQFSGYPWTFGGGTKLEIK ?
OUTPUT: > 200 µg/mL

INPUT: Do the same for 2X907.15 (antibody, IgG1, V domains shown) VH: EVKLVESGGGLVKPGGSLKLSCAASGFTFSDYYMYWVRQSPEKRLEWVATVSDVGSYTYYSGSVRGRFTISRDNAKNNLYLQMSSLQSEDTAIYYCSRDRTLDYWGQGTSVIVTS VL: QIVLTQSPAIMSASPGEKVTITCNASSSVSYMHWFQQKPGTSPKLWIYSTSNLASGVPARFSGSGSGTSYSLTISRMEAEDAATYYCHQRSSFPPTFGGGTKLEIK please
OUTPUT: > 67 µg/mL

INPUT: Do the same for 7A12.1F10 (antibody, IgG1, V domains shown) VH: QVQLQQSGAELVKPGASVKLSCKASGYIFTSNDINWVRQRPEQGLEWIGWIFPGDNSTKFNEKFRDKATLTTDKSSSTAYMQLSGLTSEDSAVYFCATFYGSTYGYYFDYWGQGTTLTVSS VL: DIVMTQSHKFMSTSVGDRVSITCKASQDVGTAVAWYQQKPGQSPKLLIYWTDTRHTGVPDRFTGSGSGTDFTLTISNVESEDCVDYFCHQYNNYPLTFGAGTKLELK please
OUTPUT: 124 µg/mL
